This collection of values is drawn from patent US5504097A.

# MEASUREMENT TARGET: 5-Lipoxygenase (Homo sapiens)
# Construct: from tissue; host or cells: whole blood of male human donors (endogenous enzyme of the leukocytes)
# Sequence (P09917 whole entry): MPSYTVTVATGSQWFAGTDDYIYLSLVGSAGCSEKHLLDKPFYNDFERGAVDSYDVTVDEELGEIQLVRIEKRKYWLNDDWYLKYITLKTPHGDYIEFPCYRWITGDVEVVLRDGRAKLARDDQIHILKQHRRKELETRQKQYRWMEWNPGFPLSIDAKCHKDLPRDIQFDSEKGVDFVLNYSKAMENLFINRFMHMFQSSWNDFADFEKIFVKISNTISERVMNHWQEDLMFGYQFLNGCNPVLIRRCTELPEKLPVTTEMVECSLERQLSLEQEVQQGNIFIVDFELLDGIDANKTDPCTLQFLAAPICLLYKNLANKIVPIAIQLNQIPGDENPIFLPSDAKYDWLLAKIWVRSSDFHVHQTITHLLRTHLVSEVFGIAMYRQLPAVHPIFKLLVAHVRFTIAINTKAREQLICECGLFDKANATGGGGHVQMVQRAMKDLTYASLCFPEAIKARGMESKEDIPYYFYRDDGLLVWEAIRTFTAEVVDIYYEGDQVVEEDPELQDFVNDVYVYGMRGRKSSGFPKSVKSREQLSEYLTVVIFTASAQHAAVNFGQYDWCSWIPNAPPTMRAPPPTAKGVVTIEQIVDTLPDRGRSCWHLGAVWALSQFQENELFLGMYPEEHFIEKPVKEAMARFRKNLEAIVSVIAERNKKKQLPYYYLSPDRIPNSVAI
# ASSAY METHOD TEXT: Inhibition of 5-Lipoxygenase in Human Whole Blood (LTB4, calcium ionophore A23187)
# Format: cell-based
# CONDITION LABEL: 10 μM
READOUT KIND: inhibition at 10 µM (%)

{"columns": ["MOLECULE", "QUANTITATIVE READOUT"],
 "data": [
  ["COc1cc(CN(O)C(N)=O)ccc1OCc1nc(-c2ccccc2)oc1C", 81],
  ["Cc1oc(-c2ccc(C(F)(F)F)cc2)nc1COc1ccc(CN(O)C(=O)NN)cc1", 50],
  ["CCCCCCNC(=O)N(O)Cc1ccc(OCc2csc(-c3ccc(Cl)cc3)n2)cc1", 36],
  ["CC(C)=NNC(=O)N(O)Cc1ccc(OCc2nc(-c3ccc(C(F)(F)F)cc3)oc2C)cc1", 78],
  ["NNC(=O)N(O)Cc1ccc(OCc2csc(-c3ccccc3)n2)cc1", 94],
  ["Cc1oc(-c2ccccc2)nc1COc1ccc(C(C)N(O)C(N)=O)cc1 (centres unmarked)", 57],
  ["Cc1oc(-c2ccccc2)nc1COc1ccc(CN(O)C(N)=O)c(Cl)c1", 80],
  ["Cc1oc(-c2ccccc2)nc1COc1ccc(C(O)CN(O)C(N)=O)cc1 (centres unmarked)", 86]
]}
